// data source = the Human Domainome abundance scans (Beltran et al. 2025)

B1: POU domain, class 2, transcription factor 2, residues 200 to 269; numbered along this chain, P09086 (parent)
chain: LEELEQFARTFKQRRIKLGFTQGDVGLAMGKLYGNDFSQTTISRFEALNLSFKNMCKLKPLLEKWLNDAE

- Variants of: B1
- run_description: abundance fitness (aPCA) (normalised: wild type 0, dead -1); higher = more abundant; growth selection in yeast, the domain comes from the species named
- condition_summary: Homo sapiens
# abundance fitness >= -0.2 gives Y, anything below gives N

sequence_entry | category_label
LEELEQFARRFKQRRIKLGFTQGDVGLAMGKLYGNDFSQTTISRFEALNLSFKNMCKLKPLLEKWLNDAE [T10R] | Y
LEELEQFTRTFKQRRIKLGFTQGDVGLAMGKLYGNDFSQTTISRFEALNLSFKNMCKLKPLLEKWLNDAE [A8T] | Y
LEELEQFARTFKQRRIKLGFTQGDVGLAMGKLYGNDFSQTTISRFEALNLSFKNMCVLKPLLEKWLNDAE [K57V] | Y

Req: Can LEELEQFARTFKQRRIKLGFTQGDVGLAMGKLYGNDFSQTTESRFEALNLSFKNMCKLKPLLEKWLNDAE [I42E] be said to have abundance fitness at or above -0.2?
Resp: N

Req: Can LEELEQFARTFKQRRIKLGFTQGDVGLAMGKLYGNDFSQTTISRFEALNLSFKNMCKLKPLLEKWLNDAG [E70G] be said to have abundance fitness at or above -0.2?
Resp: Y

Req: Can LEELEQFARTFKQRRIKLGFTQGDVGLAMGKLYGNDFSQTTISRFEALNLSFKNMCKLKPLCEKWLNDAE [L62C] be said to have abundance fitness at or above -0.2?
Resp: Y
